Ref: patent US20180179267A1

TARGET ENTITY: T1, LukD
T1 chain: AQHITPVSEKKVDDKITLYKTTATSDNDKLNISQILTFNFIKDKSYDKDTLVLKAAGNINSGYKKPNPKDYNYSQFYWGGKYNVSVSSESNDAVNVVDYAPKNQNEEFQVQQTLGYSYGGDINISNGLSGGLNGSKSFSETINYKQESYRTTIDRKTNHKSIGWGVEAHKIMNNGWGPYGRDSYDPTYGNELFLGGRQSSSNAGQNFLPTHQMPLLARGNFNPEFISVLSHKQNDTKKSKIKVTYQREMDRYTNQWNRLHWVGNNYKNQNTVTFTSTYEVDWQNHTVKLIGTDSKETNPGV
EXPERIMENTAL DETAILS: MSD solution equilibrium; Fab
MEASURED ATTRIBUTE: Kd

# BINDER, MEASUREMENT
rows = [
    ("AB-28-8 (antibody, V domains shown) VH: QVQLQESGPGLVKPSETLSLTCAVSGYSISSGMGWDWIRQPPGKGLEWIGSIDQRGSTYYNPPLESRVTISVDTSKNQFSLKLSSVTAADTAVYYCARDAGHGVDMDVWGKGTTVTVSS VL: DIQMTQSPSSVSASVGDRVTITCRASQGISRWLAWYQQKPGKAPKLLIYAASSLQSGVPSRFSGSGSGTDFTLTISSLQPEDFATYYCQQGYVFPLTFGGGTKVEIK", "0.78 nM"),
    ("AB-28-13 (antibody, V domains shown) VH: QVQLQESGPGLVKPSETLSLTCAVSGYSISSGMGWDWIRQPPGKGLEWIGSIDQRGSTYYNPSLEGRATISVDTSKNQFSLKLSSVTAADTAVYYCARDAGHGVDMDVWGKGTTVTVSS VL: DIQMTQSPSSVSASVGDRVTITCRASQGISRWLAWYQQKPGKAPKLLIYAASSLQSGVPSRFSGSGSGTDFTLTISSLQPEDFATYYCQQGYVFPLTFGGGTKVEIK", "0.79 nM"),
    ("AB-28-3 (antibody, V domains shown) VH: QVQLQESGPGLVKPSETLSLTCAVSGYSISSGMGWGWIRQPPGKGLEWIGSVDQRGSTYYNPSLKSRVTISVDTSKNQFSLKLSSVTAADTAVYYCARDAGHGADMDVWGKGTTVTVSS VL: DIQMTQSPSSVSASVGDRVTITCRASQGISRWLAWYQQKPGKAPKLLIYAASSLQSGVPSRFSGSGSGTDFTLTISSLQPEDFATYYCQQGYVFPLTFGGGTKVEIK", "1.7 nM"),
]
